tested on: HOP-62 NSCLC; test: NCI-60 one-dose screen, 48 h (100 = growth as untreated, 0 = no growth, -100 = all killed); conditions: 10 µM unless noted
This is part of a sample that, as a whole, favours compounds with a hit. Of some 83,000 tested, about 20% had one in any assay.
Can you tell me growth for the items I'm about to list?
Give bare numbers, in %.

Cc1cc2cn3c4cccnc4[nH]c(=O)c3c2cc1C
46.8
COc1cc(/C=C/C(=O)c2ccc(F)cc2)ccc1OCCCCCOc1cc2c(cc1OC)C(=O)N1CCCC1C=N2 (stereo not drawn)
-34.8
c1ccc(N2CCN(c3nncc4ccccc34)CC2)nc1
102
COc1ccc(-c2nc3sccn3c2-c2ccnc(S(C)(=O)=O)n2)cc1
78.7
CCS(=O)(=O)OCCCl
108

Report growth for each item below.
1. Nc1nc(SCC2(CCl)COC2)c2[nH]cnc2n1
2. COc1ccc(C2=NN(C(=O)c3cc(OC)c(OC)c(OC)c3)C(c3ccc(C#N)cc3)C2)cc1OC (stereo not drawn)
3. O=C(Nc1ncc([N+](=O)[O-])s1)c1cccc([N+](=O)[O-])c1
4. COc1cc(/C=C/C(=O)c2c(-c3ccc(Cl)cc3)nc3sc(C)nn23)cc(OC)c1OC

result:
1: 89.7; 2: 36.1; 3: 25.3; 4: 98.8

Report growth for each item below.
1. CC1=CC(=O)C(C(C)=Nc2ccccc2Cl)C(=O)O1 (stereo not drawn)
2. O=C(CN1CCCCC1)Sc1nnc2sc3ccccc3n12
3. CC(c1ccccn1)C(C)(O)C(C)c1ccccn1 (stereo not drawn)

result:
[109, 89.9, 101]

query: Fill in: growth of Cc1nnc(Nc2ccc(NC(=O)Nc3ccc(Cl)cc3)cc2)c2ccccc12 is ___
result: 4.62

====

system: HOP-62 NSCLC; assay: NCI-60 one-dose screen, 48 h; details: 10 µM unless noted
Compounds without any hit were thinned out: in the full panel of roughly 83,000, 20% have a hit. Activity calls are given as the source filed them. Rule for the calls: active = growth percent below 10; inactive = the rest.
One label from this list, please: active, inactive

Recorded results for 6 molecules are shown here.
COc1ccc2nccc(/C=C/c3ccnc4ccc(OC)cc34)c2c1
inactive
C[C@]12CC[C@@H]3c4ccc(O)cc4CC[C@H]3[C@@H]1CC[C@@H]2NS(=O)(=O)c1cccc(Br)c1
active
COC(=O)CCC1=C(CC(=O)OC)C(C)=N/C1=C\c1[nH]c(-c2ccc[nH]2)cc1OC
inactive
OC(Cc1cccnc1)c1ccccc1 (stereo unspecified)
inactive
O=C(/C=C/c1cccnc1)/C=C/c1cccnc1
inactive
COc1ccc(C(=O)/C=C/c2c(Cl)nc3c(c(C)nn3-c3ccccc3)c2-c2ccc(Br)cc2)cc1
inactive

query: Outcome logged for COc1cc(C2=NN(C(C)=O)C(c3ccc(OC(C)=O)cc3OC(C)=O)O2)c(OC(C)=O)c2ccccc12 (stereo unspecified) in this assay:
result: inactive

query: Outcome logged for CC1=NN(c2ccccc2Cl)C(=O)/C1=C\c1cn(S(=O)(=O)c2ccc(C)cc2)c2ccccc12 in this assay:
result: inactive

query: Outcome logged for COC(=O)c1ccc2c(c1)nc(-c1ccc(O)c(OC)c1)n2-c1cc(C(C)(C)C)[nH]n1 in this assay:
result: inactive

query: Outcome logged for Cn1c(=O)c2c(nc(Br)n2CCC(=O)Nc2ccc(F)cc2)n(C)c1=O in this assay:
result: inactive

====

system: UO-31 renal; assay: NCI-60 one-dose screen, 48 h (100 = growth as untreated, 0 = no growth, -100 = all killed); details: 10 µM unless noted
Compounds without any hit were thinned out: in the full panel of roughly 83,000, 20% have a hit.
valueType: growth (%)
Answers are plain numbers, in %.

CO[C@H]1CC(O[C@@H]2/C(C)=C/C[C@@H]3C[C@@H](C[C@]4(CC[C@H](C)[C@@H](C5CCCCC5)O4)O3)OC(=O)[C@@H]3C=C(C)/C(=N/O)[C@H]4OC/C(=C\C=C\[C@@H]2C)[C@]43O)O[C@@H](C)C1O (stereo partly drawn)
-90.5
Oc1ccccc1/C=N\Nc1ccccc1
15.5
O=C(NCCCO)c1cc(Cl)ccc1O
48.1

Report growth for each item below.
1. Nc1ccc(C2=NN(c3ccccc3)C(c3ccc(Cl)cc3)C2)cc1 (stereo not drawn)
2. COc1ccc2c(c1)[nH]c(=O)c1c3cc(OC)c(OC)cc3cn21
3. CC(=O)c1ccc2c3c(n(C)c2c1)CCCC3
4. COC(=O)CC1=C(C)/C(=C/c2[nH]c(-c3ccc[nH]3)cc2OC)N=C1C
5. O=C1c2nsnc2C(=O)c2c(F)c(F)c(F)c(F)c21

result:
1. 55.1
2. 35.1
3. 112
4. -68.9
5. -86.9

Report growth for each item below.
1. Cc1ccc(C=C2C(Cl)=C(Cl)C(Cl)=C2Cl)cc1
2. COc1ccc(-c2oc3cc(O)c(OC)c(O)c3c(=O)c2OC)cc1O
3. Nc1nc2ncc(CCNc3ccc(C(=O)NC(CCC(=O)O)C(=O)O)cc3)nc2c(=O)[nH]1 (stereo not drawn)

result:
1: -88; 2: 35.5; 3: 70.7

Report growth for each item below.
1. Nc1ccc(C2=Nc3cccc4cccc(c34)S2)cc1
2. CC(C)[C@H]1CC[C@H]2[C@@H](CC[C@H]3[C@](C)(CN)CCC[C@]23C)C1
3. C=C(C)[C@H]1CC/C(C)=C/CC[C@]2(C)O[C@H]2CC/C(COC(C)=O)=C\C1=O
4. COc1cc(C2NC(c3ccc(Cl)cc3)C(C)C(=NC(=O)c3cnccn3)C2C)cc(OC)c1OC (stereo not drawn)
5. COc1ccc(/C=C2\COc3ccc(O)c(O)c3C2=O)cc1OC
6. Cc1cc(NC(=O)c2ccc(N)cc2)ccc1N=Nc1ccc2c(O)c(N=Nc3ccc(Cl)c(S(=O)(=O)O)c3)c(S(=O)(=O)O)cc2c1

result:
1: 60.4; 2: 70.1; 3: 69.4; 4: 83; 5: -87.9; 6: 79.5

====

Tested on: MALME-3M melanoma
Assay: NCI-60 one-dose screen, 48 h (100 = growth as untreated, 0 = no growth, -100 = all killed)
Details: 10 µM unless noted
Experimental: Cells are grown in 96 well plates and exposed to the test compound for 48 hours. Compounds are tested at a single concentration, which is 10^-5 M for most compounds. The reported endpoint is percent growth (GI% or GIPRCNT), where numbers from 0 - 100% represent growth inhibition, and numbers from -100% - 0 represent cell death. For example, a value of 40 represents 60% growth inhibition. A value of 0 means no net growth occurred over the course of the experiment. […]
The panel holds about 83,000 compounds, 20% with a hit somewhere; the sample as a whole holds those more often.
valueType: growth (%)
Give bare numbers, in %.

Please review the entries below; each comes with its answer.
O=C(Nc1cccc2ccccc12)c1cc2c(cc1Br)OCO2
89.4
Cc1cc2c(cc1[N+](=O)[O-])NC(CNC(C)C)CC2 (stereo not drawn)
117

// below: growth requested for another compound
query: Fill in: growth of O=C1/C(=C/c2ccc([N+](=O)[O-])s2)Oc2ccc(Br)cc21 is ___
result: -59.7

====

system: MDA-MB-435 melanoma; assay: NCI-60 one-dose screen, 48 h; conditions: 10 µM unless noted
About 83,000 compounds went through this panel and 20% of them were active in at least one assay; those are over-represented in the sample as a whole. Calls of active or inactive are those of the source. Rule for the calls: active = growth percent below 10; inactive = the rest.
One label from this list, please: active, inactive

Recorded results for 3 compounds are shown here.
Oc1[nH]c2ccc(Cl)cc2c1/C=c1/ccc2c(c1)N=C(c1ccc(C(F)(F)F)cc1)N=2
inactive
CCOc1cccc(C2CC(=O)Nc3cc4c(cc32)OCO4)c1 (centres undefined)
inactive
COC(=O)C[C@@H]1CC=CC(=O)/C1=C(O)/C=C/c1ccccc1
active

query: Outcome logged for O=C(CSc1nnc(Nc2ccccc2)s1)NCCc1ccc(F)cc1 in this assay:
result: inactive

====

test system: HCT-15 colon; experiment: NCI-60 one-dose screen, 48 h; conditions: 10 µM unless noted
About 83,000 compounds went through this panel and 20% of them were active in at least one assay; those are over-represented in the sample as a whole. Calls of active or inactive are those of the source. How the source made its calls: active means growth percent below 10; inactive means the rest.
One label from this list, please: active, inactive

Recorded results for 4 compounds are shown here.
Cc1ccc(C(O)C2=CC(=O)c3ccccc3C2=O)cc1 (configuration not stated)
inactive
S=c1[nH]nc2sc3ccccc3n12
inactive
CCN1C[C@@H](C)n2c(c(O)c3c(=O)n(Cc4ccc(F)c(Cl)c4)nc(C(=O)NC)c32)C1=O
active
CCCCCCCCSc1ncnc2c1ncn2CO
inactive

query: Outcome logged for CC(C)COCC(CN(Cc1ccccc1)c1ccccc1)N1CCCC1 (configuration not stated) in this assay:
result: inactive

query: Outcome logged for O=C(CN1CCCCC1)Sc1nnc2sc3ccccc3n12 in this assay:
result: inactive

query: Outcome logged for C=CCOc1ccc2c(c1)CC[C@@H]1[C@@H]2CC[C@@]2(C)[C@H]1CC[C@]2(C)O in this assay:
result: inactive

query: Outcome logged for CCCn1cnc2c1c(=O)n(CCCCC(C)=O)c(=O)n2C in this assay:
result: inactive
